Where do the numbers come from? From PubChem BioAssay.

Documented inhibition of aggregation across a set of molecules
- Assay Overview: reduction of polyQ htt aggregates in cells – imaging, exon1htt(103Q)mCFP cells, high-content imaging, primary screen (AID 483);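 note: compound exposure lasted 3 days before fixation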
- Protocol Conditions: exon1htt(103Q)mCFP cell line, aggregate imaging, at 2 µM; hits give high values

{"columns": ["Molecule", "Unit Spec", "inhibition of aggregation"],
 "data": [
  ["CC(=O)Nc1cccc(OCC(O)Cn2cnc3ccccc32)c1 (configuration not stated)", "%", 12.1],
  ["COc1cc(C2N=C(c3ccccc3)NO2)cc(Br)c1O (configuration not stated)", "%", -13.7],
  ["COc1ccc(N2CCN(C(c3ccccc3)c3sc4nc(C)nn4c3O)CC2)cc1 (configuration not stated)", "%", -0.9],
  ["O=C(COc1ccccc1)N1CCN(c2ncnc3c2cnn3-c2ccccc2)CC1", "%", 1.3],
  ["CCn1c(C)nc2cc(C(=O)OCCC(F)(F)F)ccc21", "%", -1.8],
  ["CC1CN(c2ccc(Oc3ccccc3)cc2)c2nc3c(c(=O)n(CC(N)=O)c(=O)n3C)n2C1 (configuration not stated)", "%", 4.2],
  ["COc1ccc(NC(=O)CCc2nc(-c3ccccc3F)no2)cc1", "%", 30],
  ["CCOc1ccc(C2CC(c3cccc(OC)c3)Nc3nc(N)nn32)cc1 (configuration not stated)", "%", 15.4],
  ["O=C(Nc1ccccc1N1CCOCC1)c1ccc2ccccc2n1", "%", -18.1],
  ["O=C(c1ccc2nc(N3CCOCC3)sc2c1)N1CCCC1", "%", 6],
  ["O=C(O)C1C2C=CC(C3CC23)C1C(=O)NCCc1ccccc1 (configuration not stated)", "%", 19.2],
  ["COc1cccc(-c2nnn(CC(=O)O)n2)c1", "%", -19.3],
  ["CCCCOc1ccc(-c2ncc(Cl)cn2)cc1", "%", 13.9],
  ["COC(=O)C1CCN(C(=O)NC(C)(C)C)CC1", "%", 14.5],
  ["Cc1ccc(C)c(N(CC(=O)NCc2ccco2)C(=O)CCC(=O)Nc2ccccn2)c1", "%", -7.8],
  ["COc1ccc(-n2c(SCC(=O)c3c(N)n(C)c(=O)n(C)c3=O)nc3ccccc32)cc1", "%", 10.2],
  ["Cc1ccc(CN2C(=O)CCC2C(=O)NCCCN2CCC(C)CC2)cc1 (configuration not stated)", "%", 19.6],
  ["COc1ccc(Nc2nc(-c3sc(N)nc3C)cs2)cc1", "%", -10.7],
  ["CC(C)c1ccc(NC(=O)CCNS(=O)(=O)c2cccc3nonc23)cc1", "%", 24.6],
  ["OC(CN1CCN(c2ccccc2)CC1)c1ccc2c(c1)CCN2 (configuration not stated)", "%", 9.3],
  ["COc1ccc(NC(=O)C2CCCN2S(=O)(=O)c2cccc3cccnc23)c(OC)c1 (configuration not stated)", "%", 2.8],
  ["CCc1nnc2sc(-c3cc(-c4ccccc4)nc4ccccc34)nn12", "%", 7.4],
  ["O=C(NCC12CC3CC(C1)CC(CNC(=O)N1CCCC1)(C3)C2)N1CCCC1", "%", 3.3],
  ["CCN(CC)S(=O)(=O)c1ccc(F)cc1", "%", -0.6],
  ["O=c1c(CN2CCN(Cc3ccccc3)CC2)coc2ccc(Cl)cc12", "%", -1.1],
  ["COc1ccccc1NC(=O)N(C1CCCC1)C1CCN(C(C)=O)CC1", "%", -7],
  ["C#CCN1C(=O)C(O)(CC(=O)c2cc(OC)ccc2OC)c2ccccc21 (configuration not stated)", "%", 1.3],
  ["CCOC(=O)Cn1c(CN2CCN(c3cccc(Cl)c3)CC2)nc2c1c(=O)[nH]c(=O)n2C", "%", -3.2],
  ["CC(C)c1nnc(NC(=O)c2cnccn2)s1", "%", -3.7],
  ["CCOC(=O)N1CCN(C(=O)CSc2nnc(COc3ccccc3)o2)CC1", "%", -3.5],
  ["C/C(=C\\c1ccco1)C1C(C#N)=C(N)OC2=C1C(=O)CC(C)(C)C2 (configuration not stated)", "%", 11.6],
  ["Cc1nc2scc(-c3ccco3)c2c(=O)n1/N=C/N(C)C", "%", -22.8],
  ["CCOC(=O)C1CCN(C(c2cc3cc(C)cc(C)c3[nH]c2=O)c2nnnn2C2CCCCC2)CC1 (configuration not stated)", "%", -7.5],
  ["CSc1oc(-c2ccccc2)nc1S(=O)(=O)c1ccc(F)cc1", "%", 1],
  ["O=C(CSCc1ccccn1)Nc1ccccc1", "%", 21.9],
  ["COc1ccc(NC2c3ncccc3C(=O)N2Cc2ccccc2)c(OC)c1 (configuration not stated)", "%", -17],
  ["CC(=O)Nc1c(O)nc(SCC(=O)Nc2nnc(CC(C)C)s2)[nH]c1=O", "%", 0]
]}
